target: Arginase-2, mitochondrial (Homo sapiens) (UniProt P78540); assay: in vitro enzyme assay to detect the production of urea directly proportional to the activity of Arginase II; type: functional; design: scale not given: in the data most compounds retested in dose-response had high values; settings: 33.3 µM
Sequence (P78540 whole entry): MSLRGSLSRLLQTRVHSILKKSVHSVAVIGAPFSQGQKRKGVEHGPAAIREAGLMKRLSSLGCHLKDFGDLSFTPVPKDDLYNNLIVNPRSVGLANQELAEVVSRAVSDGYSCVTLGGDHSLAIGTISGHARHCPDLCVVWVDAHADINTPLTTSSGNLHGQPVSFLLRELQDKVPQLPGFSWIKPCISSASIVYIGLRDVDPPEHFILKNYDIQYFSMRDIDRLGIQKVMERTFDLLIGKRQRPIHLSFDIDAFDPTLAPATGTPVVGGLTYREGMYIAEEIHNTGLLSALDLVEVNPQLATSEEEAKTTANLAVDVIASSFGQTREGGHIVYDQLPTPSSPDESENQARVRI
Recorded Percent Effect by entry

molecule	targetOfAssay	unitAbbrev	Percent Effect
Cc1cc(CN2CCCC2c2noc(C3CC3)n2)c2ccccc2n1 (centres undefined)	Arginase-2, mitochondrial (Homo sapiens) (UniProt P78540)	%	9.8
CN(C)C(=O)CC1CC2(CCNCC2)c2cc(F)ccc21 (centres undefined)	Arginase-2, mitochondrial (Homo sapiens) (UniProt P78540)	%	-2.23
COc1ccccc1CC(=O)NCc1c(C)nc2cc(=O)[nH]n2c1C	Arginase-2, mitochondrial (Homo sapiens) (UniProt P78540)	%	1.53
O=C(CN1CCCC1Cn1cncn1)NC(C1CC1)C1CC1 (centres undefined)	Arginase-2, mitochondrial (Homo sapiens) (UniProt P78540)	%	1.32

* * *

target: Protein translocase subunit SecA (Escherichia coli (strain K12)) (UniProt P10408); experiment: Assay to Identify E. coli SecA ATPase Inhibitors; format: functional; set-up: scale not given: direction of the effect not stated beside the values; conditions: 30 µM
Sequence (P10408 whole entry): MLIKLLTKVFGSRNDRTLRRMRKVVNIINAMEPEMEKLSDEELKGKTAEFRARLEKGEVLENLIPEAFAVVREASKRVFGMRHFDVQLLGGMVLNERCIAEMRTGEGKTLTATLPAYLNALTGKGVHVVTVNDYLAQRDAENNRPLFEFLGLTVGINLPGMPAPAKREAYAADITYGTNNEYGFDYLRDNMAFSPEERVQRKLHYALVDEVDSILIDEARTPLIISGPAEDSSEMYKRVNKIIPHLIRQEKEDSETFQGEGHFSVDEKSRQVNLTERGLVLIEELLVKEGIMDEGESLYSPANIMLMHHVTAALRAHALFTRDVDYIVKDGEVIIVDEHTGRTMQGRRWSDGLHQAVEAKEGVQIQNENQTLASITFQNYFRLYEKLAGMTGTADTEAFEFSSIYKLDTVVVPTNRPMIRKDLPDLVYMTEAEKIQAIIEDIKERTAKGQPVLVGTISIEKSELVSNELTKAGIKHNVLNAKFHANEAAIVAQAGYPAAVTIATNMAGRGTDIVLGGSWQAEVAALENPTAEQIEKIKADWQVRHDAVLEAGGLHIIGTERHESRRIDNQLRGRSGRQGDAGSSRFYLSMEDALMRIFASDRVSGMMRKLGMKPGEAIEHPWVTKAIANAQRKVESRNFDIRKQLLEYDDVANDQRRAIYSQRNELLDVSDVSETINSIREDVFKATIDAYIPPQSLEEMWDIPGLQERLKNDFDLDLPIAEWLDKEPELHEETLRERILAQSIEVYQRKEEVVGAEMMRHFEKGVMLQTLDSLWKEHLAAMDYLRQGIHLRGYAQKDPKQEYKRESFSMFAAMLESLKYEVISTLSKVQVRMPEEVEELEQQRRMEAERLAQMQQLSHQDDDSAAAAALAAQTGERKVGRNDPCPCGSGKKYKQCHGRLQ
Entries with a potency or affinity are not part of this list.
parameterMeasured: Percent Effect (%)

compound	parameterMeasured	measuredNumber
Cc1ccc(N2CCCC(NCc3cccc4c3OCCO4)C2)nn1 (centres undefined)	Percent Effect	-2.62
Cc1nccn1C1CCCN(C(=O)c2ccc(N3CCCC3)nn2)C1 (centres undefined)	Percent Effect	-4.79
CC(=O)Nc1nc(C(=O)N2CCCC2c2noc(C)n2)cs1 (centres undefined)	Percent Effect	-6.47
CCC1CCCCN1C(=O)c1ccc2[nH]nnc2c1 (centres undefined)	Percent Effect	0.483
Fc1ccc(-c2nnc(CN3CCOC(Cn4cncn4)C3)o2)cc1 (centres undefined)	Percent Effect	-6.46
Cc1cccc(CN2C[C@H]3OC(=O)N(CCCN4CCOCC4)[C@H]3C2)n1	Percent Effect	-5.71
Cn1nnc2c1C(COCc1ccccn1)CN(C(=O)c1cccs1)C2 (centres undefined)	Percent Effect	3.29
Cc1cc(C(F)(F)F)c2c(C3CCN(S(=O)(=O)N(C)C)CC3)noc2n1	Percent Effect	-2.53
Cc1oc(C)c(C(=O)NCc2cccnc2N(C)C)c1C	Percent Effect	-1.52

* * *

target: Arginase-2, mitochondrial (Homo sapiens) (UniProt P78540); test: in vitro enzyme assay to detect the production of urea directly proportional to the activity of Arginase II; assay type: functional; set-up: scale not given: in the data most compounds retested in dose-response had high values; settings: 33.3 µM
parameterMeasured: Percent Effect (%)

compound	targetOfAssay	parameterMeasured	unitAbbrev	measuredNumber
Cc1nnc2n1CCN(CCC(=O)Nc1sccc1C#N)C2	Arginase-2, mitochondrial (Homo sapiens) (UniProt P78540)	Percent Effect	%	-0.719
Cc1cnn(CCNCC(=O)NCCOc2ccccc2)c1	Arginase-2, mitochondrial (Homo sapiens) (UniProt P78540)	Percent Effect	%	0.719
Cc1ncccc1Oc1nccnc1C1CCN(C(C)C)CC1	Arginase-2, mitochondrial (Homo sapiens) (UniProt P78540)	Percent Effect	%	-2.09
CN(C)CC1CSCCCN1C(=O)c1ccc(C(C)(C)C)cc1 (configuration not stated)	Arginase-2, mitochondrial (Homo sapiens) (UniProt P78540)	Percent Effect	%	7.1
CCN1CC(C(=O)N(C)Cc2ccon2)CC1=O (configuration not stated)	Arginase-2, mitochondrial (Homo sapiens) (UniProt P78540)	Percent Effect	%	-2.73
Cn1cc(Cl)cc1C(=O)N1CCN(Cc2ccsc2)CC1	Arginase-2, mitochondrial (Homo sapiens) (UniProt P78540)	Percent Effect	%	0.766
CCCNC(=O)c1sccc1N(C)S(=O)(=O)c1ccc(Cl)cc1	Arginase-2, mitochondrial (Homo sapiens) (UniProt P78540)	Percent Effect	%	9.47
COCC1CN(Cc2ccc(C)o2)Cc2nnn(CC3CC3)c21 (configuration not stated)	Arginase-2, mitochondrial (Homo sapiens) (UniProt P78540)	Percent Effect	%	2.76
Cc1cc(CN(C)C(=O)C2CCCN(C(=O)c3ccc(Cl)cc3)C2)no1 (configuration not stated)	Arginase-2, mitochondrial (Homo sapiens) (UniProt P78540)	Percent Effect	%	-20.7
O=C(NCCn1ccnc1)c1ccn(-c2cccc(F)c2)n1	Arginase-2, mitochondrial (Homo sapiens) (UniProt P78540)	Percent Effect	%	-0.719
CCn1ncc2c1CCCC2NCc1cc(Cl)c(OC)c(OC)c1 (configuration not stated)	Arginase-2, mitochondrial (Homo sapiens) (UniProt P78540)	Percent Effect	%	3.04
O=C1CC2(CCN(c3nncs3)C2)CN1c1ccccc1 (configuration not stated)	Arginase-2, mitochondrial (Homo sapiens) (UniProt P78540)	Percent Effect	%	4.58
Cc1cc2c(cc1C)C(NCc1nnc3n1CCCCC3)CCCO2 (configuration not stated)	Arginase-2, mitochondrial (Homo sapiens) (UniProt P78540)	Percent Effect	%	17.1
COC(=O)c1sccc1S(=O)(=O)N1CCC(Oc2ncccc2Cl)CC1	Arginase-2, mitochondrial (Homo sapiens) (UniProt P78540)	Percent Effect	%	-0.455
Cc1nc(C2CCCN(C(=O)Cn3ccccc3=O)C2)no1 (configuration not stated)	Arginase-2, mitochondrial (Homo sapiens) (UniProt P78540)	Percent Effect	%	4.6
c1ccc2c(N3CCCC3Cn3cccn3)ncnc2c1 (configuration not stated)	Arginase-2, mitochondrial (Homo sapiens) (UniProt P78540)	Percent Effect	%	2.77
CCCc1nc(N2Cc3cnn(Cc4ccc(F)cc4)c3C2)no1	Arginase-2, mitochondrial (Homo sapiens) (UniProt P78540)	Percent Effect	%	2.6
Cn1cnnc1C1CCCN(C(=O)NCc2cc[nH]n2)C1 (configuration not stated)	Arginase-2, mitochondrial (Homo sapiens) (UniProt P78540)	Percent Effect	%	-2.16
O=C(NCc1ccc(F)cc1)N1CCC(C2OCCO2)CC1	Arginase-2, mitochondrial (Homo sapiens) (UniProt P78540)	Percent Effect	%	-8.28
COCCN1C[C@H]2CC[C@@]3(N=C(C)N(CC4CC4)C3=O)[C@H]2C1	Arginase-2, mitochondrial (Homo sapiens) (UniProt P78540)	Percent Effect	%	-0.417
CC(C)c1nccn1C1CCCN(C(=O)c2ccc3c(c2)OCO3)C1 (configuration not stated)	Arginase-2, mitochondrial (Homo sapiens) (UniProt P78540)	Percent Effect	%	5.26
CC(NC(=O)NCCCN(C)C)c1ccc2c(c1)CCC(=O)N2 (configuration not stated)	Arginase-2, mitochondrial (Homo sapiens) (UniProt P78540)	Percent Effect	%	-6.05
